These compounds were tested on Candida tropicalis IFO 0587; MIC is the recorded read-out.
Structures can show the parent of a compound that is named as a salt.
Measure Name: MIC (µg/mL)

Example entries and their recorded answers appear below.
INSERT INTO assay_data (compound, measure_name, endpoint_unit, numeric_readout) VALUES
  ('CN(C)Cc1cc2c(o1)CCN(C(=O)CCCCCc1ccccc1)C2 [Example 6, hydrochloride]', 'MIC', 'µg/mL', 2),
  ('CN(C)Cc1cc2c(o1)CCN(C(=O)OCCCCc1ccccc1)C2 [Example 48, hydrochloride]', 'MIC', 'µg/mL', 8),
  ('CN(C)Cc1cc2c(o1)CN(C(=O)c1ccc(C(=O)c3ccc(Cl)cc3)cc1)CC2 [Example 31, hydrochloride]', 'MIC', 'µg/mL', 2),
  ('CN(C)Cc1cc2c(o1)CCN(C(=O)CCCCSc1ccccc1)C2 [Example 44, hydrochloride]', 'MIC', 'µg/mL', 8),
  ('CN(C)Cc1cc2c(o1)CCN(C(=O)c1ccc(C(=O)c3ccc(Cl)cc3)cc1)C2 [Example 32, hydrochloride]', 'MIC', 'µg/mL', 8);

(A) CN(C)Cc1cc2c(o1)CN(C(=O)CCCCCc1ccc(F)cc1)CC2 [Example 27, hydrochloride]
(B) CN(C)Cc1cc2c(o1)CN(C(=O)CCCCSc1ccccc1)CC2 [Example 43, hydrochloride]
// pick larger MIC from pair: A vs B # reply format: chosen label
A

(a) CN(C)Cc1cc2c(o1)CCN(C(=O)CCCCCc1ccc(F)cc1)C2 [Example 28, hydrochloride]
(b) CN(C)Cc1cc2c(o1)CN(C(=O)c1ccc(/C=C\c3ccccc3)cc1)CC2 [Example 33, hydrochloride]
Hi there, can you help? I need to know whether a or b has lower measured MIC. # reply format: chosen label
a
(a: 2 µg/mL, b: 16 µg/mL)

(a) CCCCCCCc1ccc(C(=O)N2CCc3cc(CN(C)C)oc3C2)cc1 [Example 21, hydrochloride]
(b) CN(C)Cc1cc2c(o1)CN(C(=O)CCCCCc1ccccc1)CC2 [Example 5, hydrochloride]
// pick larger MIC from pair: a vs b # reply format: chosen label
b

---

Structures can show the parent of a compound that is named as a salt.
These compounds were tested on Candida krusei IFO 0584; MIC is the recorded read-out.
Measure Name: MIC (µg/mL)

Example entries and their recorded answers appear below.
INSERT INTO results (compound, measured_target, numeric_readout) VALUES
  ('CN(C)Cc1cc2c(o1)CCN(C(=O)OCCCCc1ccccc1)C2 [Example 48, hydrochloride]', 'Candida krusei IFO 0584', 8),
  ('CN(C)Cc1cc2c(o1)CCN(C(=O)CCCCSc1ccccc1)C2 [Example 44, hydrochloride]', 'Candida krusei IFO 0584', 8);

(A) CN(C)Cc1cc2c(o1)CN(C(=O)CCCCCc1ccccc1)CC2 [Example 5, hydrochloride]
(B) CN(C)Cc1cc2c(o1)CCN(C(=O)CCCCCc1ccc(F)cc1)C2 [Example 28, hydrochloride]
Hi there, can you help? I need to know whether A or B has lower measured MIC. # reply format: chosen label
B

---

These compounds were tested on Aspergillus fumigatus IFO 6344; MIC is the recorded read-out.
Where a name gives a salt, the structure may show the parent alone.
Measure Name: MIC (µg/mL)

Example entries and their recorded answers appear below.
INSERT INTO measurements (compound, numeric_readout) VALUES
  ('CN(C)Cc1cc2c(o1)CCN(C(=O)CCCCCc1ccc(F)cc1)C2 [Example 28, hydrochloride]', 4),
  ('CN(C)Cc1cc2c(o1)CCN(C(=O)OCCCCc1ccccc1)C2 [Example 48, hydrochloride]', 32),
  ('CN(C)Cc1cc2c(o1)CN(C(=O)c1ccc(C(=O)c3ccc(Cl)cc3)cc1)CC2 [Example 31, hydrochloride]', 0.5);

(a) CN(C)Cc1cc2c(o1)CN(C(=O)CCCCCc1ccc(F)cc1)CC2 [Example 27, hydrochloride]
(b) CN(C)Cc1cc2c(o1)CN(C(=O)c1ccc(/C=C\c3ccccc3)cc1)CC2 [Example 33, hydrochloride]
(c) CCCCCCCc1ccc(C(=O)N2CCc3cc(CN(C)C)oc3C2)cc1 [Example 21, hydrochloride]
(d) CN(C)Cc1cc2c(o1)CN(C(=O)CCCCSc1ccccc1)CC2 [Example 43, hydrochloride]
With regard to MIC, arrange the entries in ascending order, please. Answer by listing the labels in the requested order.
b, c, a, d
(b: 0.5 µg/mL, c: 1 µg/mL, a: 2 µg/mL, d: 8 µg/mL)
